Provide the reported pIC50 of each item.
Target: UniProt:P15207
Sequence (P15207 whole entry): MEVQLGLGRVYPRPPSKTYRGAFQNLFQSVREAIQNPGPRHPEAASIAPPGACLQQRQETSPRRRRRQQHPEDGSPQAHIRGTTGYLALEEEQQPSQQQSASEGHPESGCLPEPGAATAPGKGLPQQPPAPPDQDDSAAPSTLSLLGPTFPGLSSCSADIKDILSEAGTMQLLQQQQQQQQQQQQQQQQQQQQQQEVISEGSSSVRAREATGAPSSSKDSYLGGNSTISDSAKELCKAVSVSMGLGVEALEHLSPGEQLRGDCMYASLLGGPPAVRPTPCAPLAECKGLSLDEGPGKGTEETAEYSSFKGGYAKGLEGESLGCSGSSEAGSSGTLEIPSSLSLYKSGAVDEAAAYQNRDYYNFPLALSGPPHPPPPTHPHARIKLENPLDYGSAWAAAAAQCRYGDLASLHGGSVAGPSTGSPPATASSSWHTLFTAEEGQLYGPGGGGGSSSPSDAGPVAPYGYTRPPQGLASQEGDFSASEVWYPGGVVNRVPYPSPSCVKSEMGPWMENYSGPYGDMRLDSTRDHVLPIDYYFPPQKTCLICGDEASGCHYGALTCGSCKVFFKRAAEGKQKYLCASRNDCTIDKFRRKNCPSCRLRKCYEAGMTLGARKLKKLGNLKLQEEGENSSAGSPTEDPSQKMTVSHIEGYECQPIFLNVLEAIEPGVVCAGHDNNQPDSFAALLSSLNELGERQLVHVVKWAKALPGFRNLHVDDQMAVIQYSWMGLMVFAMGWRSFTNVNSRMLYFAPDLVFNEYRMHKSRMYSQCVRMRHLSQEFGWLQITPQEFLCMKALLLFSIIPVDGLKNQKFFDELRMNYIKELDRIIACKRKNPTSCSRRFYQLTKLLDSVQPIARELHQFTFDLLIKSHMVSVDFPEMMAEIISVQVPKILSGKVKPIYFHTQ
Numbers only, as −log10 of the molar value.

Known results for molecules:
Using the record for Oc1c(Cl)cc(-c2cc(Cl)c(O)c(Cl)c2)cc1Cl , state its measured pIC50. 4.42

Please give measured pIC50 of the following entry: O=C1C[C@@H]2C(=O)CC[C@H]2[C@@H]2CC[C@H]3CCCC[C@@H]3[C@@H]12 7.05

Note down pIC50 recorded for C[C@H]1CCCC(=O)CCCCCc2cc(O)cc(O)c2C(=O)O1 (stereo in doubt; form 1) [ZEARALANONE] 4.37

Parameter requested: pIC50. Apply to each item below.
1. C[C@]12CC[C@@H]3c4ccccc4CC[C@H]3[C@@H]1CC[C@@H]2O
2. O=C1CC(c2ccccc2)Oc2ccc(O)cc21 (stereo not given)

7.05
4.73

// data source = ChEMBL document CHEMBL1141069
